B1: LINE1-full (parent)
chain: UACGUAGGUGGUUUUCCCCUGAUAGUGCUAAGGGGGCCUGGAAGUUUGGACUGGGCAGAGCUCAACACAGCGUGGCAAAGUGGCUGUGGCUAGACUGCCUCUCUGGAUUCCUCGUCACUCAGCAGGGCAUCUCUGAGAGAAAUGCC

Variants of: B1
experiment: self-cleavage, relative activity (ratio to wild type); higher = more cleavage; in vitro, sequencing; the parent is a self-cleaving ribozyme
Tick label 1 if self-cleavage is 1 or greater. Tick label 0 if self-cleavage is less than 1.

A59U A67U ... label 0
U85C G105U ... label 0
A59G G127A ... label 0
A77U A78G ... label 0
A78G A121G ... label 1

Textbook exercise: given the entry C3U A78G , state whether its self-cleavage is greater than or equal to 1. label 0

Textbook exercise: given the entry G36A U102C , state whether its self-cleavage is greater than or equal to 1. label 1

Textbook exercise: given the entry G40A U112C , state whether its self-cleavage is greater than or equal to 1. label 0

Textbook exercise: given the entry A59G C116U , state whether its self-cleavage is greater than or equal to 1. label 0

Textbook exercise: given the entry U29A A140G , state whether its self-cleavage is greater than or equal to 1. label 1

Textbook exercise: given the entry G11A U26C , state whether its self-cleavage is greater than or equal to 1. label 1

Textbook exercise: given the entry U87C A117U , state whether its self-cleavage is greater than or equal to 1. label 0

Textbook exercise: given the entry U9C A138U , state whether its self-cleavage is greater than or equal to 1. label 1

Textbook exercise: given the entry G10A A117U , state whether its self-cleavage is greater than or equal to 1. label 1
